Rule: logP below 5 gives satisfied, anything at or above gives not satisfied.

| chemical-structure | qualitative-label |
| --- | --- |
| N#Cc1ccc(C=C2c3cccc(O)c3C(=O)c3c(O)cccc32)cc1 | satisfied |
| O=C(O)c1ccc(C=C2c3cccc(O)c3C(=O)c3c(O)cccc32)cc1 | satisfied |
| O=C1c2c(O)cccc2C(C(=O)Cc2cc(O)c(O)c(O)c2)c2cccc(O)c21 | satisfied |
| O=C1c2c(O)cccc2C(=Cc2ccc(O)cc2)c2cccc(O)c21 | satisfied |

Problem: Given "CC(C)(C)c1cc(CC(=O)C2c3cccc(O)c3C(=O)c3c(O)cccc32)cc(C(C)(C)C)c1O" , is recorded logP strictly lower than 5?
Solution: not satisfied

---

Listed below: logP values for each entry.
Response field accepts a number only; no unit should be typed.

| chemical-structure | logP |
| --- | --- |
| Cc1ccc(C=C2c3cccc(O)c3C(=O)c3c(O)cccc32)cc1 | 5.83 |
| O=C1c2c(O)cccc2C(C(=O)Cc2ccc(O)c(O)c2)c2cccc(O)c21 | 3 |
| O=C1c2c(O)cccc2C(C(=O)CCc2ccc(O)cc2)c2cccc(O)c21 | 3.73 |

Problem: Consider the molecule "O=C1c2c(O)cccc2C(C(=O)Cc2ccc([N+](=O)[O-])cc2)c2cccc(O)c21" and give its measured logP.
Solution: 3.96

Problem: Lookup "COC(=O)c1ccc(C=C2c3cccc(O)c3C(=O)c3c(O)cccc32)cc1"
Solution: 5.35

---

Listed below: logP values for each entry.
Response field accepts a number only; no unit should be typed.

Example molecules with recorded logP:
| chemical-structure | logP |
| --- | --- |
| O=C1c2c(O)cccc2C(C(=O)Cc2ccccc2)c2cccc(O)c21 | 4.24 |
| O=C1c2c(O)cccc2C(=Cc2cc(O)c(O)c(O)c2)c2cccc(O)c21 | 3.32 |
| O=C1c2c(O)cccc2C(C(=O)Cc2cc(OCc3ccccc3)c(OCc3ccccc3)c(OCc3ccccc3)c2)c2cccc(O)c21 | 6.11 |
| O=C1c2c(O)cccc2C(C(=O)CCCc2ccccc2)c2cccc(O)c21 | 4.74 |

Problem: Consider the molecule "COc1cccc(C=CC(=O)C2c3cccc(O)c3C(=O)c3c(O)cccc32)c1" and give its measured logP.
Solution: 4.68

---

Listed below: logP values for each entry.
Response field accepts a number only; no unit should be typed.

| chemical-structure | logP |
| --- | --- |
| O=C1c2c(O)cccc2C(C(=O)CCc2ccccc2)c2cccc(O)c21 | 4.63 |
| COc1ccc(C=C2c3cccc(O)c3C(=O)c3c(O)cccc32)cc1 | 5.53 |

The record that follows has no logP shown yet.
Problem: Consider the compound "O=C1c2c(O)cccc2C(=Cc2ccc(C(F)(F)F)cc2)c2cccc(O)c21" and give its measured logP.
Solution: 5.48

---

Listed below: logP values for each entry.
Response field accepts a number only; no unit should be typed.

Example compounds with recorded logP:
| chemical-structure | logP |
| --- | --- |
| COc1ccc(CCC(=O)C2c3cccc(O)c3C(=O)c3c(O)cccc32)cc1 | 4.72 |
| O=C1c2c(O)cccc2C(C(=O)CCc2ccc(OCc3ccccc3)cc2)c2cccc(O)c21 | 5.63 |
| O=C1c2c(O)cccc2C(C(=O)Cc2ccc(OCc3ccccc3)c(OCc3ccccc3)c2)c2cccc(O)c21 | 5.43 |

The record that follows has no logP shown yet.
Problem: Consider the compound "O=C1c2c(O)cccc2C(=CCCc2ccccc2)c2cccc(O)c21" and give its measured logP.
Solution: 5.67
